Tested on: SK-OV-3 ovarian
measurement notes: NCI-60 one-dose screen, 48 h (100 = growth as untreated, 0 = no growth, -100 = all killed)
details: 10 µM unless noted
Compounds without any hit were thinned out: in the full panel of roughly 83,000, 20% have a hit.
property label: growth (%)
Respond numerically; units are % and should not be typed.

Could you share which growth value was measured for CCCCN(CCCC)CC(O)CN(CC)CC (centres undefined) ? 99

Can you share its growth? I mean this molecule: COc1ccc(NC(=O)/C=C(C)/C=C/C=C(C)/C=C/C2=C(C)CCCC2(C)C)cc1 86.2

Please give the measured growth for this molecule: Clc1ccc(N/N=C(/c2ccccc2)c2ccccn2)nc1 26.5

# get_value(readout='growth', item= CC(=O)Nc1ccc(C(=O)/C=C/c2ccc(N(C)C)cc2)cc1 ) 101

What value of growth has been recorded for this entry: Nc1nc2c(c3cnccc13)C(c1ccc(Cl)c(Cl)c1)Cc1cnccc1-2 (centres undefined) 2.34

// lookup growth for CCCCCN1CCN(C(CC(=O)c2ccccc2)C(=O)c2ccccc2)CC1 (centres undefined) 102

I would be grateful if you could share the reported growth for O=C(N/N=C\c1ccc(-c2ccc(Br)cc2)o1)c1cc2oc(-c3cccc(C(F)(F)F)c3)cc2[nH]1 . 115

###

Recorded growth values for a group of molecules are listed next.
Test system: MDA-MB-231 breast
measurement notes: NCI-60 one-dose screen, 48 h (100 = growth as untreated, 0 = no growth, -100 = all killed)
details: 10 µM unless noted
Procedure: Cells are grown in 96 well plates and exposed to the test compound for 48 hours. Compounds are tested at a single concentration, which is 10^-5 M for most compounds. The reported endpoint is percent growth (GI% or GIPRCNT), where numbers from 0 - 100% represent growth inhibition, and numbers from -100% - 0 represent cell death. For example, a value of 40 represents 60% growth inhibition. A value of 0 means no net growth occurred over the course of the experiment. […]
Compounds without any hit were thinned out: in the full panel of roughly 83,000, 20% have a hit.
# output: bare number, implied unit %

| smiles record | unit symbol | value measured |
| --- | --- | --- |
| COc1ccc(CN2C(=O)/C(=C\C(=O)c3ccc(OCCN4CCCCC4)cc3)c3ccccc32)cc1 | % | 84.8 |
| O=C(Nc1ccc(Cl)cn1)C1(c2ccccc2)CCCCC1 | % | 87.7 |
| CCCCCCN(CCCCCC)CCC(=O)Nc1ccc(S(=O)(=O)c2ccc(NC(=O)CCN(CCCCCC)CCCCCC)cc2)cc1 | % | 61 |

Any idea what growth was measured for CC(=O)N1CCN(CCNC(=O)n2cc(-c3ccncc3)c(-c3ccc(O)c(Cl)c3)n2)CC1 ? 107

// returns reported growth for input CCOC(=O)CNS(=O)(=O)CC(=O)c1ccccc1 97.3

###

Tested on: DU-145 prostate
measurement notes: NCI-60 one-dose screen, 48 h (100 = growth as untreated, 0 = no growth, -100 = all killed)
details: 10 µM unless noted
About 83,000 compounds went through this panel and 20% of them were active in at least one assay; those are over-represented in the sample as a whole.
property label: growth (%)
Answer format: numeric, % implied, no suffix.

| smiles record | target entity | growth, % |
| --- | --- | --- |
| N#Cc1c2ncccc2c2nnc3cc(Cl)c(Cl)cc3n12 | DU-145 prostate | 89.2 |
| COC(=O)[C@@H]1[C@H](O)[C@H](C)[C@H](O)[C@H](C)/C=C\C=C(C)C(=O)Nc2c(C)c(OC(C)=O)c3c(c2O)C(=O)C(C)=C2OCOC(=C23)C(C)=C[C@@](C)(O)[C@H](O)[C@@H](C)[C@H]1OC(C)=O | DU-145 prostate | 144 |
| CC[C@H](Nc1ncnc2nc[nH]c12)c1nc2cccc(NCc3ccc(C(=O)NO)nc3)c2c(=O)n1-c1ccccc1 | DU-145 prostate | 67 |
| O=C(/C=C/c1c[nH]c2ccccc12)c1cc2ccccc2o1 | DU-145 prostate | 95.6 |
| CCCCCCCCC/C(=N\NC(=O)c1ccncc1)c1ccc(O)c(O)c1O | DU-145 prostate | 27.8 |
| CCCCS(=O)(=O)c1cc(Nc2ccc(O)c3c2C(=O)c2ccccc2C3=O)ccc1C | DU-145 prostate | 42.1 |
| COc1ccc2c(N)ncc(C#Cc3cc(C(=O)Nc4ccc(CN5CCN(C)CC5)c(C(F)(F)F)c4)cnc3C)c2c1 | DU-145 prostate | -89.2 |
| COc1ccc(OC)c(Cn2cc3c(c2-c2ccccc2)CCc2cnoc2-3)c1 | DU-145 prostate | 94.7 |

Returns the measured growth for the input molecule. Input: COc1cccc(-c2cc(-c3cc4ccccc4oc3=O)nc(N)n2)c1 112

Can you look up the measured growth of CCOC(=O)c1c2c(cn1Cc1ccccc1)-c1oncc1CC2 for me? 107

Name the reported growth value associated with the molecule O=C(/C=C/c1ccc(Cl)cc1)c1ccc(Cl)cc1 101

// growth lookup, key: O=C(Nc1ccc(-n2cc(-c3ccncc3)c(-c3ccc(Cl)c(O)c3)n2)cc1)Nc1ccc(Cl)c(C(F)(F)F)c1 23.2

Please give the measured growth for this molecule: Cc1nn(-c2ccccc2)c(N)c1N=C1NC(=O)/C(=C/c2ccc(Cl)cc2)S1 86.9

# growth lookup, item CC(C)C(=O)c1ccc(Cl)s1 106

growth for CCCNC(=O)Oc1ccc(/C(=C(/C)Cc2ccc(OC)cc2)c2ccc(OCCN3CCCC3)cc2)cc1 ? 90.1

What does the data say about its growth? Entry: Cc1nc2c(nnn2-c2ccccc2)c2nc(-c3ccccc3)oc(=O)c12 117

Reported growth, molecule C/C=C/C/C=C/[C@H](C)C[C@H](O)[C@@H]1C[C@@H]2O[C@H]2/C=C/[C@H](O)[C@@H](O)/C=C/C[C@H](C)CC(=O)O1 : ____ 90.7

# get_value(readout='growth', item= COc1ccc(-c2cc(C#N)c(NNC(C)=O)[nH]2)cc1 ) 123

// returns reported growth for input CC(C)(C)c1ccc([I+]c2ccc(C(C)(C)C)cc2)cc1 -89.1

###

Test system: OVCAR-8 ovarian
measurement notes: NCI-60 one-dose screen, 48 h
details: 10 µM unless noted
Description: Growth inhibition of the OVCAR-8 human tumor cell line is measured as a screen for anti-cancer activity. Cells are grown in 96 well plates and exposed to the test compound for 48 hours. Compounds are tested at a single concentration, which is 10^-5 M for most compounds. The reported endpoint is percent growth (GI% or GIPRCNT), where numbers from 0 - 100% represent growth inhibition, and numbers from -100% - 0 represent cell death. For example, a value of 40 represents 60% growth inhibition. […]
About 83,000 compounds went through this panel and 20% of them were active in at least one assay; those are over-represented in the sample as a whole. Calls of active or inactive are those of the source. How the source made its calls: active means growth percent below 10; inactive means the rest.
Write down the outcome that applies. Available outcomes: class 1 for active, class 0 for inactive

Here's what some known entries look like.
| molecule | assigned label |
| --- | --- |
| C/C=C/C/C=C/[C@H](C)C[C@H](O)[C@@H]1C[C@@H]2O[C@H]2/C=C/[C@H](O)[C@@H](O)/C=C/C[C@H](C)CC(=O)O1 | class 0 |
| O=C(OCC1CC2(Cl)C(Cl)=C(Cl)C1(Cl)C2(Cl)Cl)C1C(C(=O)OCC2CC3(Cl)C(Cl)=C(Cl)C2(Cl)C3(Cl)Cl)C2(Cl)C(Cl)=C(Cl)C1(Cl)C2(Cl)Cl (configuration not stated) | class 0 |
| Oc1ccccc1\C=N/N=C/C=C/c1ccccc1 | class 0 |
| CC[C@@H](C)/C=C(C)/C=C/C(=O)c1c(O)c(-c2ccc(OC(=O)[C@@]34CC[C@@](C)(C(=O)O3)C4(C)C)cc2)cn(O)c1=O | class 0 |
| COc1ccc2nc3cc(Cl)ccc3c(NCCCNC(C)=O)c2c1 | class 0 |

Tell me the assay call for COC(=O)[C@H](Cc1cn(C)cn1)NC(=O)[C@H](CC(=O)OCc1ccccc1)NC(=O)Nc1cc(C(F)(F)F)cc(C(F)(F)F)c1 please. class 1

Recorded test outcome, item Cc1c([C@H](C(Cl)Cl)[C@H](O)[C@H]2C[C@H](C)C(=O)O2)ccc2c1C(=O)[C@H]1[C@H]2C[C@@H](Br)[C@@]23O[C@@H](CO[C@H]2O)CC13C (some centres not stated) class 1

###

System: SK-MEL-5 melanoma
measurement notes: NCI-60 one-dose screen, 48 h (100 = growth as untreated, 0 = no growth, -100 = all killed)
details: 10 µM unless noted
Compounds without any hit were thinned out: in the full panel of roughly 83,000, 20% have a hit. The source made the active and inactive calls. The calls were made as follows: active = growth percent below 10; inactive = the rest.
Parameter growth: see the listing below.

As a guide, the following entries are already answered.
| compound | value measured |
| --- | --- |
| Cn1cnc2nc[nH]c2c1=S | 100% (inactive) |
| CSCc1ncc(-c2ccc(C(F)(F)F)cc2)c(NC2CCCCCC2)n1 | 78.6% [25 µM] (inactive) |
| COc1ccc(Cn2cc3c(c2-c2ccc(OC)cc2)CCc2cnoc2-3)cc1 | 10.6% (inactive) |
| COc1ccc2c(c1)cn1c3ccc(O)cc3[nH]c(=O)c21 | 13% (inactive) |

// query growth value for entry O=C1/C(=N\c2cc(=O)[nH]n2S(=O)(=O)c2ccccc2)Nc2ccccc21 98.6% (inactive)

Would you mind telling me what growth value was observed for c1cc(C2CCCCC2)ccc1OCCCCCCN1CCNCC1 ? 34.4% (inactive)

// lookup growth for Cc1ccc(C(C)C)c(OCc2ccc(C(=O)N/N=C/c3cccc(O)c3O)cc2)c1 38.6% (inactive)

For the compound shown here, [N-]=[N+]=Nc1ncc(-c2ccc(C(F)(F)F)cc2)c(NC2CCCCCC2)n1 , give the reported growth. 26.5% [100 µM] (inactive)

Query (compound): CCOC(=O)C1=C(C(F)(F)F)NC(=O)NC1CN1C(=O)c2ccccc2C1=O (stereo not given) ; field requested: growth 111% (inactive)

# query: growth of entry CC(C)OC(=O)[C@H](C)N[P@@](=O)(OC[C@@]1(C)O[C@@H](n2cc(F)c(N)nc2=O)C[C@@H]1O[P@](=O)(N[C@@H](C)C(=O)OC(C)C)Oc1ccccc1)Oc1ccccc1 90.6% (inactive)

# credit: PubChem BioAssay (NCI)
